System: UACC-257
Assay: NCI tumour cell line growth inhibition, 48 h
Activity calls are given as the source filed them. Rule as the data show it: active = GI50 up to about 1.1 µM and inactive = higher.
Write down the outcome that applies. Available outcomes: True (active), False (inactive)

Consider the following illustrative entries.
COc1ccc(CSCc2cc(OC)c(OC)c(OC)c2)cc1 : False
C(=C\c1cccs1)/c1cccc(/C=C/c2cccs2)n1 : False
CN(C)c1n/c(=N/c2ncn[nH]2)ss1 : False
OC(c1cc2ccccc2[nH]1)C(O)(c1cc2ccccc2[nH]1)c1cc2ccccc2[nH]1 (stereo not drawn) : False
COC(=O)C1C(=O)CC2CCCCC21 (stereo not drawn) : False
COC1C(CO)OC(n2c3c(Cl)cccc3c3c4c(c5c6cccc(Cl)c6[nH]c5c32)C(=O)NC4=O)C(O)C1O (stereo not drawn) : True
COc1cc(C23OCC(Cc4cc5c(cc42)OCO5)C3CO)cc(OC)c1OC (stereo not drawn) : False
CCN(CC)CCOc1ccc(C(=C2CCCCC2)c2ccc(OCCN(CC)CC)cc2)cc1 : False
N=C(N)SCc1ccc(N=C=S)cc1 : False
Cc1cc(NC(=S)Nc2ccccc2)c(NC(=S)Nc2ccccc2)cc1C : False

Could you please tell me the result logged for O=C1/C(=C\c2cccc(Oc3ccccc3)c2)S(=O)(=O)C(c2ccccc2)N1c1ccccc1Cl (stereo not drawn) in this assay?
False

What did the test return for O=C(N/C(=C\NC1=NCCS1)C(=O)N1CSC[C@@H]1C(=O)O)c1ccccc1 ?
False

I would be grateful if you could indicate the recorded call for CCOC(=O)NC(Nc1ncccn1)(C(F)(F)F)C(F)(F)F .
False
